molecular target: human translation (HEK 293F lysate); assay: Human in vitro translation (HsIVT) assay, HEK 293F lysate, luciferase reporter; type: biochemical; conditions: read-out: HsIVT IC50 (text)
property-measured: pIC50
The value called pIC50 is obtained by taking minus log10 of the concentration in mol/L.

query: Return reported pIC50; argument: Nc1nc(NC2Cc3ccc(F)cc3C2)nc(N2CCCCC2)n1 (stereo not shown) [MMV1580839]
result: 5.10

====

tested on: human translation (HEK 293F lysate); assay: Human in vitro translation (HsIVT) assay, HEK 293F lysate, luciferase reporter; assay type: biochemical; conditions: 10 µM; three technical replicates
property-measured: effect on translation in the HsIVT assay (Fig. S3A)

C[C@@H]1C[C@@H]([C@H](O)CC2CC(=O)NC(=O)C2)C(=O)[C@@H](C)C1 [Cycloheximide, cycloheximide, reference compound]    ablated activity
CC[C@H]1CN2CCc3cc(OC)c(OC)cc3[C@@H]2C[C@@H]1C[C@H]1NCCc2cc(OC)c(OC)cc21 [Emetine, emetine, reference compound]    ablated activity
C[C@H]1CCC[C@H](C[C@H]2Cc3cc(O)cc(O)c3C(=O)O2)O1 [Cladosporin, cladosporin, reference compound]    little or no effect
O=C(NCCN1CCCC1)c1cc(-c2ccc(CN3CCOCC3)cc2)nc2ccc(F)cc12 [DDD107498/M5717, reference compound]    little or no effect

query: Return reported effect on translation in the HsIVT assay (Fig. S3A); argument: O=C(CC1NCCCC1O)Cn1cnc2cc(Br)c(Cl)cc2c1=O (centres unmarked) [Halofuginone, halofuginone, reference compound]
result: ablated activity

====

target: human translation (HEK 293F lysate); assay: Human in vitro translation (HsIVT) assay, HEK 293F lysate, luciferase reporter; type: biochemical; settings: Pathogen Box hits; weighted mean ± SD of two technical replicates; read-out: IC50 value (μM) HsIVT
property-measured: log10 of IC50 (log10 of the value in µM)
Values below are the log10 of the recorded IC50, with µM as the unit.

CC(=O)Oc1ccccc1C(=O)Nc1ncc([N+](=O)[O-])s1 [MMV688991, nitazoxanide, reference compound]    -1.40
Cc1c[nH]c(CCNC(=O)c2cc(-c3ccc(Cl)cc3)cs2)n1 [MMV676350]    0.83
COc1ccc(C2=NCCN2)cc1-c1cn(-c2cccc(C3=NCCN3)c2)nn1 [MMV688547]    0.43
O=C(Nc1c(O)cccc1-c1nc2c(C(=O)O)cccc2o1)c1cc(-c2ccccc2)on1 [MMV676008]    1.08

query: Return reported log10 of IC50; argument: O=C(Nc1nc(-c2ccccn2)cs1)c1cncn1-c1ccccc1 [MMV676512]
result: 1.34

query: Same for N=C(N)Nc1ccc(-c2ccc(-c3ccc(N=C(N)N)c(Cl)c3)o2)cc1Cl [MMV688271]
result: 1.11

====

molecular target: human translation (HEK 293F lysate); experiment: Human in vitro translation (HsIVT) assay, HEK 293F lysate, luciferase reporter; type: biochemical; settings: Pandemic Box hits; weighted mean ± SD of two technical replicates; read-out: IC50 value (μM) HsIVT
Assign labels as follows, please: 1 for IC50 below 20 µM; 0 for IC50 equal to or exceeding 20 µM.

Worked examples, 3 molecules total:
Cn1cc(NC(=O)c2cc(NC(=O)c3ccc(/C=C/c4cnc5ccccc5c4)cc3)cn2C)cc1C(=O)NCCN1CCOCC1    1
CC(Cc1ccccc1)C(=O)Nc1ccc(Cl)cc1C(=O)O (stereo not drawn)    0
CC(C)Nc1ncnc2c1cnn2-c1ccc(Cl)cc1    0

query: Strictly below 20 µM: is that where IC50 of `O=C(O)c1cc(-c2ccc(Br)cc2)nc2ccc(Cl)cc12` sits?
result: 0

query: Same for `O=C(Nc1nnc(-c2ccccc2)o1)c1ccc(F)cc1`
result: 1

query: Same for `C(=C\c1nc2ccccc2[nH]1)/c1ccc2c(c1)OCO2`
result: 1

query: Same for `NC[C@H]1O[C@H](O[C@H]2[C@H](O)[C@@H](O[C@H]3O[C@H](CO)[C@@H](O)[C@H](N)[C@H]3O)[C@H](N)C[C@@H]2N)[C@H](N)C[C@@H]1O`
result: 0

query: Same for `Cc1oncc1C(=O)Nc1ccc(C(F)(F)F)cc1`
result: 0

query: Same for `Clc1cccc(-c2nnc(-c3ccccc3)o2)c1`
result: 0

query: Same for CC(=O)Oc1ccccc1C(=O)Nc1ncc([N+](=O)[O-])s1 [MMV688991, nitazoxanide, reference compound]
result: 1

query: Same for Nc1nc(NC2Cc3ccc(F)cc3C2)nc(N2CCCCC2)n1 (stereo not drawn)
result: 1

query: Same for `CCOc1ccc(C(=O)NCCc2ccccc2)cc1`
result: 1
